Kindly supply the reported inhibition in vivo at 20 µmol/kg values for the records listed here.
Tested on: passive cutaneous anaphylaxis (PCA)
Test: Inhibition of passive cutaneous anaphylaxis (PCA) in rats
Assay type: in vivo, Sprague-Dawley rats
Settings: Rattus norvegicus, 1 h, 2 × 10^-5 mole/kg per os, one hour before ovalbumin challenge
Method: 1. Determining Inhibition of Passive Cutaneous Anaphylaxis (PCA) and Histamine-Induced Anaphylactoid Cutaneous Reaction The PCA reaction is carried out following the methods described by Goose et al. (J. N. Immunology 16 (1969), 749) and by Martin et al. (Arch. Pharmacol. 316 (1981), 186). […] The inhibition of the passive cutaneous anaphylaxis and of the anaphylactoid cutaneous reaction induced by histamine was determined as follows: […]
Reply with the number, then its unit.

Incoming: Find the recorded inhibition in vivo at 20 µmol/kg belonging to COc1cccc(N2CCN(CCCCC3Sc4ccccc4NC3=O)CC2)n1 (centres unmarked) and report it.
Outgoing: 50%

Incoming: Find the recorded inhibition in vivo at 20 µmol/kg belonging to Cc1ccc(N2CCN(CCCCC3Sc4ccccc4NC3=O)CC2)nc1 (centres unmarked) and report it.
Outgoing: 55%

Incoming: Find the recorded inhibition in vivo at 20 µmol/kg belonging to Cc1ccnc(N2CCN(CCCC3Sc4ccccc4NC3=S)CC2)c1 (centres unmarked) and report it.
Outgoing: 55%

Incoming: Find the recorded inhibition in vivo at 20 µmol/kg belonging to Cc1ccnc(N2CCN(CCCCC3Sc4cc(Cl)ccc4NC3=O)CC2)c1 (centres unmarked) and report it.
Outgoing: 60%

Incoming: Find the recorded inhibition in vivo at 20 µmol/kg belonging to Cc1ccnc(N2CCN(CCCCC3Oc4ccc(C)cc4NC3=O)CC2)c1 (centres unmarked) and report it.
Outgoing: 80%

###

Kindly supply the reported inhibition at 10 µM values for the records listed here.
System: PAF-induced aggregation of rabbit blood platelets
Experiment: Anti-PAF activity in vitro, PAF-induced platelet aggregation
Assay type: cell-based, rabbit (New Zealand hybrids)
Conditions: Oryctolagus cuniculus, test substance 10^-5 mole/l, pH 7.4

Incoming: Find the recorded inhibition at 10 µM belonging to Cc1ccnc(N2CCN(CCCCC3Sc4cc(F)ccc4NC3=O)CC2)c1 (centres unmarked) and report it.
Outgoing: 76%

Incoming: Find the recorded inhibition at 10 µM belonging to Cc1ccnc(N2CCN(CCCCC3Sc4cc(C)c(C)cc4NC3=O)CC2)c1 (centres unmarked) and report it.
Outgoing: 37%

Incoming: Find the recorded inhibition at 10 µM belonging to Cc1ccnc(N2CCN(CCCCC3Sc4ccccc4NC3=S)CC2)c1 (centres unmarked) and report it.
Outgoing: 60%

Incoming: Find the recorded inhibition at 10 µM belonging to Cc1ccnc(N2CCN(CCCC3Sc4ccccc4NC3=S)CC2)c1 (centres unmarked) and report it.
Outgoing: 96%

Incoming: Find the recorded inhibition at 10 µM belonging to Cc1ccnc(N2CCN(CCCC3Sc4ccccc4NC3=O)CC2)c1 (centres unmarked) and report it.
Outgoing: 48%

###

Kindly supply the reported inhibition in vivo at 20 µmol/kg values for the records listed here.
Test system: passive cutaneous anaphylaxis (PCA)
Experiment: Inhibition of passive cutaneous anaphylaxis (PCA) in rats
Assay type: in vivo, Sprague-Dawley rats
Conditions: Rattus norvegicus, 1 h, 2 × 10^-5 mole/kg per os, one hour before ovalbumin challenge
Report the figure in % without appending any unit label.

Incoming: Find the recorded inhibition in vivo at 20 µmol/kg belonging to Cc1ccnc(N2CCN(CCCCC3Sc4ccccc4NC3=O)CC2)c1 (stereo not drawn) [Example 1] and report it.
Outgoing: 88

Incoming: Find the recorded inhibition in vivo at 20 µmol/kg belonging to O=C1Nc2ccccc2SC1CCCCN1CCN(c2ccccn2)CC1 (stereo not drawn) [Example 17] and report it.
Outgoing: 70

Incoming: Find the recorded inhibition in vivo at 20 µmol/kg belonging to Cc1ccnc(N2CCN(CCCCC3Oc4ccccc4NC3=O)CC2)c1 (stereo not drawn) [Example 7] and report it.
Outgoing: 70

Incoming: Find the recorded inhibition in vivo at 20 µmol/kg belonging to Cc1ccnc(N2CCN(CCCCC3Sc4cc(F)ccc4NC3=O)CC2)c1 (stereo not drawn) [Example 18] and report it.
Outgoing: 80

Incoming: Find the recorded inhibition in vivo at 20 µmol/kg belonging to Cc1ccnc(N2CCN(CCCCC3Sc4ccccc4N(C)C3=O)CC2)c1 (stereo not drawn) [Example 3] and report it.
Outgoing: 80

Incoming: Find the recorded inhibition in vivo at 20 µmol/kg belonging to Cc1ccnc(N2CCN(CCCC3Oc4ccccc4NC3=O)CC2)c1 (stereo not drawn) [Example 9] and report it.
Outgoing: 60
